System: Staphylococcus aureus
Protocol description: Antibacterial activity against Staphylococcus aureus after 24 hrs by MTT assay
Assay type: functional
Quantity kind: MIC (µg/mL)
Entry rule: numbers only, all in µg/mL.

- Smi: "O=C(Nc1ccccc1)N(Cc1cc(Br)ccc1O)c1ccc(F)cc1"
  Units text: "µg/mL"
  MIC: 3.13
- Smi: "Oc1ccc(Br)cc1CNc1ccccc1Br"
  Units text: "µg/mL"
  MIC: 50
- Smi: "O=C(Nc1ccccc1)N(Cc1cc(Br)ccc1O)c1ccc(Br)cc1"
  Units text: "µg/mL"
  MIC: 12.5
- Smi: "Oc1ccc(Br)cc1CNc1ccccc1F"
  Units text: "µg/mL"
  MIC: 25
- Smi: "Oc1c(Br)cc(Br)cc1CNc1ccccc1F"
  Units text: "µg/mL"
  MIC: 25

[in] Entry `Cc1ccc(N(Cc2cc(Br)ccc2O)C(=O)Nc2ccccc2)cc1` has what MIC?
[out] 50

[in] Quick one: `Oc1c(Br)cc(Br)cc1CNc1ccc(Cl)cc1`
[out] 12.5

[in] Next compound: `O=C(Nc1ccccc1)N(Cc1cc(Br)cc(Br)c1O)c1ccccc1Br`
[out] 50

[in] Request: `O=C(Nc1ccccc1)N(Cc1cc(Br)ccc1O)c1ccccc1Br`
[out] 25

[in] Again, but for `COc1ccc(NCc2cc(Br)cc(Br)c2O)cc1`
[out] 50

[in] Input `Cc1ccc(N(Cc2cc(Br)cc(Br)c2O)C(=O)Nc2ccccc2)cc1`
[out] 6.25

[in] Also need `Oc1c(Br)cc(Br)cc1CNc1ccccc1Br` , thanks.
[out] 50

The measured values listed here are drawn from ChEMBL document CHEMBL1806421.
